The values you see were collected from patent US11078232B2.

# System: BALB/C mouse
# EXPERIMENT_NOTES: MTD (maximum tolerated dose) acute toxicity in mice
# Assay type: in vivo
# CONDITION_DETAILS: intravenous, 10 mice per group
Assignment: determine reported Number of deaths for the given molecules.
One number for each entry.

Here is how some molecules turned out for Number of deaths.
MOLECULE: CC(NC(=O)C(NC(=O)[C@H](O)[C@H](O)[C@@H](O[C@@H]1O[C@H](CO)[C@H](O)[C@H](O)[C@H]1O)[C@H](O)CO)C(C)O)C(=O)NC(CC(N)=O)C(=O)Nc1ccc(COC(=O)N(C)CCNC(=O)c2cc(Oc3ccc(NC(=O)Nc4ccc(Cl)c(C(F)(F)F)c4)cc3)ccn2)cc1 (stereo partly drawn) [Compound S13, Lacto-TAN-PABC-compound a]
Number of deaths: 2

MOLECULE: CC(NC(=O)C(C)NC(=O)[C@H](O)[C@H](O)[C@@H](O[C@@H]1O[C@H](CO)[C@H](O)[C@H](O)[C@H]1O)[C@H](O)CO)C(=O)NC(CC(N)=O)C(=O)Nc1ccc(COC(=O)Nc2c(-c3nc4ccc(N5CCN(C)CC5)cc4[nH]3)c(=O)[nH]c3cccc(F)c23)cc1 (stereo partly drawn) [Compound S5]
Number of deaths: 2

Continue with the next molecule.
Exercise: Value lookup for Number of deaths; key = CC(NC(=O)C(NC(=O)[C@H](O)[C@H](O)[C@@H](O[C@@H]1O[C@H](CO)[C@H](O)[C@H](O)[C@H]1O)[C@H](O)CO)C(C)O)C(=O)NC(CC(N)=O)C(=O)Nc1ccc(COC(=O)N(C)CCNC(=O)c2cc(Oc3ccc(NC(=O)Nc4ccc(Cl)c(C(F)(F)F)c4)c(F)c3)ccn2)cc1 (stereo partly drawn) [Compound S14, Lacto-TAN-PABC-compound b]
Solution: 1
